EC50 listing for selected molecules.
# tgt: alpha 2B adrenergic receptor (Homo sapiens)
# Construct: expressed in transfected cells; host or cells: NIH-3T3 cells, transient cotransfection by calcium phosphate
# Sequence (P18089 whole entry): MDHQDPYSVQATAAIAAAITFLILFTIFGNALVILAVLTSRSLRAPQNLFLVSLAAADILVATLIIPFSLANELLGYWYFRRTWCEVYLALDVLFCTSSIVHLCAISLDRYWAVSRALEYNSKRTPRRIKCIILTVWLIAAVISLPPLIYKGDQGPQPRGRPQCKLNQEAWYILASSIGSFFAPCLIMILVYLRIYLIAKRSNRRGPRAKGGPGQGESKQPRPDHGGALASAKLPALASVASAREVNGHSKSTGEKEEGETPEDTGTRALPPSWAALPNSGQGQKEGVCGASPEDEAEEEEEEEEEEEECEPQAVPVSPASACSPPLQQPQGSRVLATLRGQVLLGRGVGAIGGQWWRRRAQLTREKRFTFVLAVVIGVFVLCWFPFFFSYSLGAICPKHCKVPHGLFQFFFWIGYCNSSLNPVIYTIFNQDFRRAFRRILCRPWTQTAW
# assayText: RSAT (Receptor Selection and Amplification Technology) assay, alpha 2B
# Type: cell-based
# measurementParameters: NIH-3T3 cells cotransfected with receptor and Gq/i5
Write the number in nM without appending the unit.

>>> measvalue("CCOc1ccccc1CNC(=S)NCCO")
42
>>> measvalue("OCCNC(=S)NCc1cc(I)ccc1F")
49
>>> measvalue("OCCNC(=S)NCc1cccc(C(F)(F)F)c1Cl")
33

Q: Suppose we examine the molecule OCCNC(=S)NCc1c(F)ccc(Cl)c1Cl ; what EC50 value has been reported?
Ans: 30

Q: Suppose we examine the molecule COc1ccc(F)cc1CNC(=S)NCCO ; what EC50 value has been reported?
Ans: 9

Q: Suppose we examine the molecule Cc1ccc(Br)c(F)c1CNC(=S)NCCO ; what EC50 value has been reported?
Ans: 181

Q: Suppose we examine the molecule OCCNC(=S)NCc1c(F)cccc1C(F)(F)F ; what EC50 value has been reported?
Ans: 137

Just for reference, patent US6545182B2 is where these values come from.
